These entries and their values trace back to ChEMBL document CHEMBL1136248.

target_or_test_system: Genome polyprotein (Hepatitis C virus genotype 1a (isolate 1) (HCV))
Sequence (P26664 2421-3011 limits assumed): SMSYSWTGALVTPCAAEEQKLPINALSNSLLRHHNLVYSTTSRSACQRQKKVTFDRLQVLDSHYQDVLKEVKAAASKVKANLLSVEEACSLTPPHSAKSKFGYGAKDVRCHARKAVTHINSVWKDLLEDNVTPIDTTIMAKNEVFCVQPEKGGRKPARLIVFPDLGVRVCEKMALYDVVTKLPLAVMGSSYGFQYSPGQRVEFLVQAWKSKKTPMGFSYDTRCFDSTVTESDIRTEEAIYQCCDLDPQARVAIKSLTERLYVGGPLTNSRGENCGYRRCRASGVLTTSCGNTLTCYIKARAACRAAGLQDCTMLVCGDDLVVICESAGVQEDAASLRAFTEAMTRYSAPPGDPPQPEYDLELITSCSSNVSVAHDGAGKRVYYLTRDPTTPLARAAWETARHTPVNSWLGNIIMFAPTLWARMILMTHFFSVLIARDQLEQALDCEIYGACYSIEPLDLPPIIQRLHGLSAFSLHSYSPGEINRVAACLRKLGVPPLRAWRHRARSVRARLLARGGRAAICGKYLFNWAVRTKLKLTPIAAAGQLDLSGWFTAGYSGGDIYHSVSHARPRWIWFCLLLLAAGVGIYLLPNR
protocol_notes: Inhibition of Hepatitis C RNA dependent RNA polymerase Nonstructural protein 5B activity.
pIC50: −log10 of the molar value.

smiles_input: O=C(O)[C@H](Cc1ccccc1)N(Cc1cccc(Br)c1)C(=O)c1ccccc1Cl
relational_operator: =
pIC50: 4.51
//
smiles_input: COc1ccc(C(=O)N(Cc2cccc(Br)c2)[C@@H](Cc2ccccc2)C(=O)O)c(OC)c1
relational_operator: =
pIC50: 4.97
//
smiles_input: O=C(O)[C@H](Cc1ccccc1)N(Cc1cccc(Br)c1)Cc1ccc(Cl)cc1Cl
relational_operator: =
pIC50: 4.59
//
smiles_input: O=C(O)[C@H](Cc1ccccc1)N(Cc1cccc(Br)c1)C(=O)c1ccc(Cl)cc1Br
relational_operator: =
pIC50: 5.30
//
smiles_input: COc1cc(Cl)ccc1C(=O)N(Cc1cccc(Br)c1)[C@@H](Cc1ccccc1)C(=O)O
relational_operator: =
pIC50: 4.96
//
smiles_input: O=C(O)[C@H](Cc1ccccc1)N(Cc1cccc(Br)c1)C(=O)c1c(Cl)cc(Cl)cc1Cl
relational_operator: =
pIC50: 4.89
//
smiles_input: O=C(O)[C@H](Cc1ccccc1)N(Cc1cccc(Br)c1)C(=O)c1ccc(Cl)cc1Cl
relational_operator: =
pIC50: 5.46
//
smiles_input: O=C(O)[C@H](Cc1ccccc1)N(Cc1cccc(Br)c1)C(=O)c1cccc(Cl)c1
relational_operator: =
pIC50: 4.52
//
smiles_input: O=C(O)[C@H](Cc1ccccc1)N(Cc1cccc(Br)c1)C(=O)c1ccc(Cl)nc1Cl
relational_operator: =
pIC50: 4.51
//
smiles_input: O=C(O)[C@H](Cc1ccccc1)N(Cc1cccc(Br)c1)C(=O)c1ccc(F)cc1F
relational_operator: =
pIC50: 4.37
//
smiles_input: O=C(O)[C@H](Cc1ccccc1)N(Cc1cccc(Br)c1)C(=O)c1ccccc1
relational_operator: <
pIC50: 4.30
